# Assay remarks: Heat stress test, aggregation analysed by SEC
# Type: physicochemical
# Measurement setup: post stress test: 0.5 mg/mL in PBS, 75° C. for 30 min; SEC % area
Outcome measure: Ab in native conformation (%)

AB-09: Prior art anti-PSMA antibody, heavy chain SEQ ID No 15, light chain SEQ ID No 16 (antibody, V domains shown) VH: MELGLRWVLLVALLRGVQCQVQLVESGGGVVQPGRSLRLSCAASGFTFSNYVMHWVRQAPGKGLEWVAIIWYDGSNKYYADSVKGRFTISRDNSKNTLYLQMNSLRAEDTAVYYCAGGYNWNYEYHYYGMDVWGQGTTVTVSS VL: MRVPAQLLGLLLLCFPGARCDIQMTQSPSSLSASVGDRVTITCRASQGITNYLAWFQQKPGKAPKSLIYAASSLQSGVPSKFSGSGSGTDFSLTISSLQPEDFATYYCQQYNSYPITFGQGTRLEIK :: 0
AB-03: Humanised anti-PSMA antibody, heavy chain SEQ ID No 7, light chain SEQ ID No 8 (antibody, V domains shown) VH: EVQLVQSGAEVKKPGASVKVSCKASGYTFTEYTIHWVRQAPGKGLEWIGNINPNNGGTTYNQKFEDRVTITVDKSTSTAYMELSSLRSEDTAVYYCAGGWTFDYWGQGTTVTVSS VL: DIQMTQSPSTLSASVGDRVTITCKASQDVGTAVDWYQQKPGQAPKLLIYWASTRHTGVPDRFSGSGSGTDFTLTISRLQPEDFAVYYCQQFTRYPLTFGQGTKVDIK :: 36
AB-04: Humanised anti-PSMA antibody, heavy chain SEQ ID No 9, light chain SEQ ID No 8 (antibody, V domains shown) VH: EVQLVQSGAEVKKPGASVKVSCKASGYTFTEYTIHWVRQAPGKGLEWIGNINPNNGGTTYNQKFEDRVTITVDKSTSTAYMELSSLRSEDTAVYYCAGAWTMDYWGQGTTVTVSS VL: DIQMTQSPSTLSASVGDRVTITCKASQDVGTAVDWYQQKPGQAPKLLIYWASTRHTGVPDRFSGSGSGTDFTLTISRLQPEDFAVYYCQQFTRYPLTFGQGTKVDIK :: 27
